Value source: paper PMC6611404

pKi: −log10 of the molar value.
pKi data for human 5-HT6 receptors (Homo sapiens) follow.
endpoint: pKi

                                   compound  readoutnumber
0  COc1cccc(CN2CCC(CCC(=O)c3cc(Cl)c(N)cc3OC)CC2)c1 [5l]           6.58
1  COc1cc(N)c(Cl)cc1C(=O)CCC1CCN(Cc2cccc(C)c2)CC1 [5k]           6.64
2  COc1cc(N)c(Cl)cc1C(=O)CCC1CCN(Cc2ccccc2Cl)CC1 [5b]           6.96
3  COc1cc(N)c(Cl)cc1C(=O)CCC1CCN(Cc2cccc(N)c2)CC1 [5m]           5.94
4  COc1cc(N)c(Cl)cc1C(=O)CCC1CCN(Cc2ccccc2I)CC1 [5e]           6.73
5  COc1cc(N)c(Cl)cc1C(=O)CCC1CCN(Cc2cccc(C)c2)CC1.O=C(O)/C=C/C(=O)O [compound 10]           6.66
6  COc1cc(N)c(Cl)cc1C(=O)CCC1CCN(Cc2ccccc2C)CC1 [5f]           6.57
7  COc1cc(N)c(Cl)cc1C(=O)CCC1CCN(Cc2cccc(Br)c2)CC1 [5i]           6.77
